Tested on: PPARg:RXRa 270nM:90nM, anti-RXR (NR concentration 270 nM, RXRa partner concentration 90 nM)
Assay: PBM binding z-score (relative to random genomic background probes); higher = stronger binding; sequences stand for … in GC…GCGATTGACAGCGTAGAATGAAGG
Mark YES for reported PBM binding z-score of 8 or greater; mark NO for anything smaller.

polymer_sequence: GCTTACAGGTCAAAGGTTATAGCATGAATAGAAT
qualitative_label: YES

polymer_sequence: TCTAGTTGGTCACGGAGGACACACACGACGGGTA
qualitative_label: NO

polymer_sequence: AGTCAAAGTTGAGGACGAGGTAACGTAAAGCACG
qualitative_label: NO

polymer_sequence: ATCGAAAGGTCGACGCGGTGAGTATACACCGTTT
qualitative_label: NO

polymer_sequence: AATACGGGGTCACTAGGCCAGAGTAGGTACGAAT
qualitative_label: YES

polymer_sequence: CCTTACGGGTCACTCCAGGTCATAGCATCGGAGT
qualitative_label: NO

polymer_sequence: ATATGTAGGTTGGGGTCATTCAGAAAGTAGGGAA
qualitative_label: NO

polymer_sequence: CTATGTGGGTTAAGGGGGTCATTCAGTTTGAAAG
qualitative_label: NO

polymer_sequence: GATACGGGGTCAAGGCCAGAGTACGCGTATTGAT
qualitative_label: YES

polymer_sequence: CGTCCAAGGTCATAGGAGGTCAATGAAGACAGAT
qualitative_label: NO

polymer_sequence: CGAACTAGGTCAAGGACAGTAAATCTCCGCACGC
qualitative_label: NO

polymer_sequence: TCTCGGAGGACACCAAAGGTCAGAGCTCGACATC
qualitative_label: NO

polymer_sequence: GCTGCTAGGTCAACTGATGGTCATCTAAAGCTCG
qualitative_label: NO

polymer_sequence: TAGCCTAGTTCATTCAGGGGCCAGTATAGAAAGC
qualitative_label: NO

polymer_sequence: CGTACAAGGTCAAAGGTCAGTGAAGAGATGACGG
qualitative_label: YES

polymer_sequence: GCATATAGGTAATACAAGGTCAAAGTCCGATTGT
qualitative_label: NO

polymer_sequence: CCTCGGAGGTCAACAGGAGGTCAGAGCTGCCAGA
qualitative_label: NO

polymer_sequence: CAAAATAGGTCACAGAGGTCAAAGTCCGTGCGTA
qualitative_label: YES

polymer_sequence: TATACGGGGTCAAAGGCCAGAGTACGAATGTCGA
qualitative_label: YES

polymer_sequence: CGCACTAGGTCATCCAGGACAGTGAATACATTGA
qualitative_label: NO

polymer_sequence: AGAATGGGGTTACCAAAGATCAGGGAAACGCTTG
qualitative_label: NO

polymer_sequence: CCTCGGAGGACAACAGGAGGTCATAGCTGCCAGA
qualitative_label: NO

polymer_sequence: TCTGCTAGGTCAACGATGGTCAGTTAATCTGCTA
qualitative_label: NO
